- System: A498 renal
- test-protocol: NCI-60 one-dose screen, 48 h (100 = growth as untreated, 0 = no growth, -100 = all killed)
- condition-parameters: 10 µM unless noted
Compounds without any hit were thinned out: in the full panel of roughly 83,000, 20% have a hit.
measured-parameter: growth (%)
Numbers only here, please. The scale is %.

// known answers, use as guide
                                   compound  observed_value
0  COC(=O)C(CC=O)C(=O)C(=O)Nc1cccc(C(F)(F)F)c1 (stereo not given)            83.4
1  CNCCOc1nc2c3cnccc3cc(-c3cc(OC)c(OC)c(OC)c3)c2c2ccncc12           -87.2
2                   OCc1cnccc1NCCCOc1ccccc1            91.9
3  N#Cc1c(-c2cccc([N+](=O)[O-])c2)nc(SCC(=O)c2ccc(Cl)cc2)[nH]c1=O            92.3

// below: growth requested for another compound
If you can, please state the reported growth value of Cc1ccc(-c2nc3ccccn3c2/C=C2/C(=O)Nc3cc(Cl)ccc32)cc1 .
98.2

* * *

- System: RXF 393 renal
- test-protocol: NCI-60 one-dose screen, 48 h
- condition-parameters: 10 µM unless noted
Compounds without any hit were thinned out: in the full panel of roughly 83,000, 20% have a hit. Calls of active or inactive are those of the source. Rule for the calls: active = growth percent below 10; inactive = the rest.
Mark one answer only. Choices: y = active, n = inactive

Examples from the recorded data:
>>> df
                                   compound  cat
0  Cn1ccnc1C(=O)/C=C/c1ccc(CC(=O)Nc2ccc(F)cc2)cc1    n
1    CC/C(=C\c1ccc(OC)cc1)C(=O)c1ccc(OC)cc1    n
2  O=C(Nc1ccc(-c2ccc3c(c2)NC(=O)/C3=C\c2ccc[nH]2)cc1)NC1CC1    n
3  COc1cc(/C=N/NC(=O)c2cnn3c2NC(c2ccccc2)C3)ccc1OCc1ccccc1 (stereo not given)    y
4  COc1cc2cc(Oc3cccc(NC(=O)Nc4cc(C(F)(F)F)cc(C(F)(F)F)c4)c3)c(C)nc2cc1OC    y

Field: outcome | Entry: Brc1ccc(Nc2csc(-c3ccccn3)n2)cc1
n

Now give it for CCCCCC(=O)Oc1ccc(/C(=C(/C)Cc2ccc(OC)cc2)c2ccc(OCCCN(C)C)cc2)cc1 too.
n

One more compound: CCN(Cc1ccccc1)c1ccc(C=O)cc1
n

Also COc1cc(F)c(/C=C/c2cc(/C=C/c3cc(OC)c(OC)cc3F)on2)cc1OC ?
n

Another compound to look at: Cc1nnc2c(Cc3ccccc3)nc3ccccc3n12
n

And then N#C/C(=C\c1ccc(Cl)cc1)n1nnc2cc(F)c(F)cc21 , what is it?
y

* * *

- Test system: OVCAR-5 ovarian
- test-protocol: NCI-60 one-dose screen, 48 h (100 = growth as untreated, 0 = no growth, -100 = all killed)
- condition-parameters: 10 µM unless noted
This is part of a sample that, as a whole, favours compounds with a hit. Of some 83,000 tested, about 20% had one in any assay.
measured-parameter: growth (%)
Entry rule: numbers only, all in %.

// known answers, use as guide
In [3]: df
Out[3]:
                                   compound  observed_value
0      O=Cc1cc2ccccc2nc1Oc1ccc(C(F)(F)F)cc1            99.2
1  COc1ccc(/C=C/c2nc(Nc3ccc(S(=O)(=O)Nc4cc(C)on4)cc3)c3ccccc3n2)cc1            71.1
2  O=C(CCN1CCCC1)Nc1ccc2c(Nc3ccc(F)cc3)c3ccccc3nc2c1            12.9
3  N#C/C(=C\c1ccc([N+](=O)[O-])s1)c1nc2cc(Br)ccc2s1            20.5
4  COCCCN1CC(O)=C(c2nc(-c3ccc(C)cc3)cs2)C1=N            97.6

Which growth value belongs to Cc1ccc(CNc2c3ccccc3nc3cc(NC(=O)CCN4CCCC4)ccc23)cc1 ?
20.7

Moving on to the next compound: O=C(/C=C/c1ccc(F)cc1)c1ccc(NC(=O)N2CCN(c3cc4c(cc3F)c(=O)c(C(=O)O)cn4C3CC3)CC2)cc1
96.9

One more compound: COc1ccc2c(c1)oc1c(C)c3c(c(C)c12)C(=O)N(CCN1CCOCC1)C3=O
92.6

Consider next the compound C=C1C(=O)O[C@H]2[C@H]1CC/C(CNC(=O)/C=C/c1cccc(OC)c1)=C\CC[C@@]1(C)O[C@@H]21 in the same way.
39.8

// same read-out, input: Cc1c2cc[nH]c(=O)c2c(C)c2c1[nH]c1cc(OCCN3CCN(C)CC3)ccc12
16.1

What do you get for CCCOc1ccc(/C=N/Nc2cc(C)nc3ccc(Br)cc23)cc1 ?
111

Try the compound COc1ccc(C(=O)Nc2cccc(C3CCc4c(cc(OC)c(OC)c4OC)O3)c2)cc1 (centres undefined)
91.1

How about this compound: CNC(=O)c1cncc(Cn2nc(C)c(NC(=O)c3ccc(COc4ccc(C(F)(F)F)cc4C)cc3)c2C)c1
98.1

Now consider COc1ccc2[nH]c(=O)c(CN3CCN(c4nccc(-c5ccc(Cl)cc5)n4)CC3)cc2c1 .
98.5

Quick one: C=C1C(=O)O[C@H]2[C@H]1CC/C(COC(=O)NCC(C)c1ccc(CC(C)C)cc1)=C\CC[C@@]1(C)O[C@@H]21 (some centres undefined)
62.4

Would you kindly repeat that for COc1ccc(/C=C/C(=O)Nc2cc(/C=C\c3cc(OC)c(OC)c(OC)c3)cc(OC)c2OC)cc1OC ?
63.2

Please do the same for Cc1cc(C)c(S(=O)(=O)Oc2ccccc2[N+](=O)[O-])c(C)c1 as well.
43.4

And the next one, CC(=O)CCC(=O)OCc1cc(=O)c(O)co1 ?
93.5

Same question for CCOC(=O)CSc1nc2ccccc2c(=O)n1Cc1ccc(S(N)(=O)=O)cc1 please.
97.5

What about COc1ccc(C(=O)c2nc3ccccc3n2CC(=O)c2ccc(F)cc2)cc1 ?
82.5

Lookup CNC(=O)c1cccc(Cn2nc(C)c(NC(=O)c3ccc(COc4ccc(C(F)(F)F)cc4C)cc3)c2C)n1
104

* * *

- Tested on: CCRF-CEM leukemia
- test-protocol: NCI-60 one-dose screen, 48 h
- condition-parameters: 10 µM unless noted
The panel holds about 83,000 compounds, 20% with a hit somewhere; the sample as a whole holds those more often. Calls of active or inactive are those of the source. The calls were made as follows: active = growth percent below 10; inactive = the rest.
Classes to choose from: 1 for active, -1 for inactive

Record excerpt, results attached:
>>> df
                                   molecule  cat
0  O=C(CNCCN1CCOCC1)N1c2cccc3cccc(c23)N(C(=O)CNCCN2CCOCC2)C1c1cn(-c2ccccc2)nc1-c1cccc([N+](=O)[O-])c1   -1
1  COc1ccc(/C=C/c2nc(Nc3ccc(Cl)cc3)c3ccccc3n2)cc1    1
2  CC(=O)O[C@@H]1C2CCC3C(CC[C@@]4(C)C3CC[C@@H]4C(C)N(C)C)[C@@]2(C)CC[C@@H]1NC(=O)C=C(C)C (some centres not stated)    1
3  CNCCOc1nc2c3cnccc3cc(-c3cc(OC)c(OC)c(OC)c3)c2c2ccncc12    1
4  CC1(C)CC(O)CCCCCCOc2c(CN)cccc2NC(=O)c2nc(cnc2N)-c2ccc(cc2)S1(=O)=O (configuration not stated)    1

Per the assay record, what outcome was assigned to COc1ccc(C(=O)Nc2cccc(C3CCc4c(cc(OC)c(OC)c4OC)O3)c2)cc1 (configuration not stated) ?
-1

Another molecule to look at: N#CC1=C(/N=C/c2ccccc2)Oc2c(ccc3ccccc23)C1c1ccc([N+](=O)[O-])cc1 (configuration not stated)
-1

Okay, and CN(C)c1ccc(Nc2c3ccccc3nc3cc(NC(=O)CCN4CCCC4)ccc23)cc1 ?
1

Repeat for the following molecule: NC(=NCCCOc1ccc(F)cc1)Nc1ccc(I)cc1
-1

Now give it for CCNc1nc2ccc(Nc3ccnc4cc(Cl)ccc34)cc2[nH]1 too.
-1

Try C=C1C(=O)O[C@H]2[C@H]1CC/C(C(=O)NCCCCCNC(=O)/C1=C/CC[C@@]3(C)O[C@H]3[C@H]3OC(=O)C(=C)[C@@H]3CC1)=C\CC[C@@]1(C)O[C@@H]21 next.
-1

Now give it for NS(=O)(=O)c1ccc(Cn2c(SCC(=O)N/N=C/c3ccccc3O)nc3ccccc3c2=O)cc1 too.
-1

Next: COc1cc(/C=C/c2cc(O)c(C(C)=O)c(O)c2)cc2c1O[C@]1(C)CC[C@@H](O)C(C)(C)[C@H]1C2
-1

Would you kindly repeat that for C#CCNC(=O)c1cccc2c1cc(C)n2-c1nc2c(c(NCc3ccccc3)n1)CCCC2 ?
1

Entry to check: O=C(CCN1CCCC1)Nc1ccc2c(NCCCCc3ccccc3)c3ccccc3nc2c1
1

Now consider O=C(Cn1c[n+](CC(=O)c2ccc(-c3ccccc3)cc2)c2ccccc21)Nc1cccc2cccnc12 and answer again.
-1

Moving on to COc1ccc(OC)c(-c2cc(-c3ccc(Cl)cc3)c3c(N)c(C(=O)c4ccc(Cl)cc4)sc3n2)c1
-1
